# Lookup of reported Activity, No BP, DF-2500000 keyed by entry
Target: T1, IL-18 receptors on HEK-Blue IL-18 reporter cells (UniProt Q13478 19-541; O95256 20-599, limits assumed)
T1 sequence (looked up) 1: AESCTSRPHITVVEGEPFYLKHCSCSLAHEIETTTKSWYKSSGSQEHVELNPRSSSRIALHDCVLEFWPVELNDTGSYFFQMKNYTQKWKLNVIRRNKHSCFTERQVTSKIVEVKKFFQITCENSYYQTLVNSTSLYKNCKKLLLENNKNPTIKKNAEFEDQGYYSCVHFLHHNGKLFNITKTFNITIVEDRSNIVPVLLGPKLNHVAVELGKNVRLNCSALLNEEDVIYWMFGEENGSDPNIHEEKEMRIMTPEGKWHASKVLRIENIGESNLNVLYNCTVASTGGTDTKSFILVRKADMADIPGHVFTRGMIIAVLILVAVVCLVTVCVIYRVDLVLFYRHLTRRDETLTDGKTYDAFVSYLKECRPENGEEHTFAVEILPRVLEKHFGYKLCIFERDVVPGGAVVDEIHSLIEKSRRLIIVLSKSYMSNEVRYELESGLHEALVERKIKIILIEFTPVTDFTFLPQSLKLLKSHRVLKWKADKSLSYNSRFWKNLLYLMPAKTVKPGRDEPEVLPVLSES
T1 sequence (looked up) 2: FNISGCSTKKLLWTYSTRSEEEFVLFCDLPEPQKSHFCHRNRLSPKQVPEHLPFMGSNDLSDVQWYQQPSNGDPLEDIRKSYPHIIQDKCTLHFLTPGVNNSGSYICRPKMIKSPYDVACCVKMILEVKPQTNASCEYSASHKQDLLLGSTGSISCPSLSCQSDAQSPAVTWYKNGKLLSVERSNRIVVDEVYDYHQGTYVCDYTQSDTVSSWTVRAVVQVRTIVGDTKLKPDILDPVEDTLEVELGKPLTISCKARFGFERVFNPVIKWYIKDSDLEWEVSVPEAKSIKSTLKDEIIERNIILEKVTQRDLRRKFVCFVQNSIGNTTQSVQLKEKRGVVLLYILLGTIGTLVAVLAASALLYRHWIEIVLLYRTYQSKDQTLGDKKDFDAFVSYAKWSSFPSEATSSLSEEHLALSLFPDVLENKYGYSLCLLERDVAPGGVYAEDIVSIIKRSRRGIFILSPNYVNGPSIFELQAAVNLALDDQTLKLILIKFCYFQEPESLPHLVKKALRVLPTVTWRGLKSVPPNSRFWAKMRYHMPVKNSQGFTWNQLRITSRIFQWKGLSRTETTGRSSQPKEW
Assay: cell-based or functional assay
I only need the number, thanks.

# annotated cases, reported Activity, No BP, DF-2500000 shown
# Binder, Activity, No BP, DF-2500000
measured = [
    ("IL-18 variant G3P, E6R, K53T, D54Y, S55I, T63V, N91G, R104K (ligand) YFPKLRSKLSVIRNLNDQVLFIDQGNRPLFEDMTDSDMRDNAPRTIFIISMYTYIQPRGMAVVISVKSEKISTLSSENKIISFKEMNPPDGIKDTKSDIIFFQKSVPGHDNKMQFESSSYEGYFLASEKERDLFKLILKKEDELGDRSIMFTVQNED", 0.07),
    ("IL-18 variant G3P, E6D, K53T, D54N, T63A, N91T, R104P (ligand) YFPKLDSKLSVIRNLNDQVLFIDQGNRPLFEDMTDSDMRDNAPRTIFIISMYTNSQPRGMAVAISVKSEKISTLSSENKIISFKEMNPPDTIKDTKSDIIFFQPSVPGHDNKMQFESSSYEGYFLASEKERDLFKLILKKEDELGDRSIMFTVQNED", 0.07),
]

Here's the next entry for you.
Input line: Entry IL-18 variant G3E, E6G, N91M, R104A (ligand) YFEKLGSKLSVIRNLNDQVLFIDQGNRPLFEDMTDSDMRDNAPRTIFIISMYKDSQPRGMAVTISVKSEKISTLSSENKIISFKEMNPPDMIKDTKSDIIFFQASVPGHDNKMQFESSSYEGYFLASEKERDLFKLILKKEDELGDRSIMFTVQNED : reported Activity, No BP, DF-2500000 = ?
Output line: 1.54
